- target: Gastrin-releasing peptide receptor (Rattus norvegicus)
- Sequence (P52500 whole entry): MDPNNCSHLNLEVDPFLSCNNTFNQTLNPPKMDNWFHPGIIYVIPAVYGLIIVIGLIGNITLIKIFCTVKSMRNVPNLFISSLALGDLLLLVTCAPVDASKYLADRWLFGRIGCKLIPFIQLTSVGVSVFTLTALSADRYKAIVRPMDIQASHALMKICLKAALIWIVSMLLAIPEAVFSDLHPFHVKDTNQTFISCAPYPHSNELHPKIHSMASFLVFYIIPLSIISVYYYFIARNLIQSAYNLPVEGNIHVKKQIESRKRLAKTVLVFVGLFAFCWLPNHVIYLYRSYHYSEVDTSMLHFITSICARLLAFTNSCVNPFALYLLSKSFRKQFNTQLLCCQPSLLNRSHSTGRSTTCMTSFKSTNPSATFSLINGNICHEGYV
pKi: −log10 of the molar value.
measured_parameter: pKi

{"compound": "CC(C)C[C@H](NC(=O)[C@H](CC(C)C)NC(=O)[C@H](Cc1cnc[nH]1)NC(=O)CN1CC[C@H](NC(=O)[C@H](C)NC(=O)[C@H](Cc2c[nH]c3ccccc23)NC(=O)[C@H](CCC(N)=O)NC(=O)[C@H](N)Cc2ccccc2)C1=O)C(N)=O", "pKi": 6.65}

(P) CC(C)C[C@H](NC(=O)[C@H](CC(C)C)NC(=O)[C@H](Cc1cnc[nH]1)NC(=O)c1cccc(NC(=O)[C@H](C)NC(=O)[C@H](Cc2c[nH]c3ccccc23)NC(=O)[C@H](CCC(N)=O)NC(=O)[C@H](N)Cc2ccccc2)c1)C(N)=O
(Q) CC(C)C[C@@H](NC(=O)[C@H](Cc1c[nH]cn1)NC(=O)CN1CCCC[C@H](NC(=O)[C@H](C)NC(=O)[C@H](Cc2c[nH]c3ccccc23)NC(=O)[C@H](CCC(N)=O)NC(=O)[C@H](N)Cc2ccccc2)C1=O)C(=O)NO
(R) CC(C)C[C@H](NC(=O)[C@H](CC(C)C)NC(=O)[C@H](Cc1c[nH]cn1)NC(=O)CNC(=O)[C@@H](NC(=O)[C@H](C)NC(=O)[C@H](Cc1c[nH]c2ccccc12)NC(=O)[C@H](CCC(N)=O)NC(=O)C(N)Cc1ccccc1)C(C)C)C(N)=O (stereo in doubt)
Task item: Order field: pKi | Direction: descending (largest first) The reply should contain the labels ordered as requested.
Reply: R, Q, P

// provenance: ChEMBL document CHEMBL1133744
